# system_tested: T1, Human Galectin-3 protein (Acro Biosystems, GA3-H5129) (human, UniProt P17931 2-250)
# T1 construct: Bought protein; also called Gal3-ECD-His; Gal3-His; not shown: linker-spaced 6-histidine tag
# experiment_summary: ELISA, blocking of INSR binding to coated Gal3
measurement_name: IC50 (read off the curve)

• 6H6.2D6 (antibody, V domains shown) VH: QIQLVQSGPELKKPGETVKISCKASGYTFTTYGMSWVKQAPGKGLKWMAWINTYSGVPTYADDFKGRFAFSLETSASTAYLQINNLTNEDTATYFCARGPYAMDYWGQGTSVTVSS VL: DIQMTQTTSSLSASLGDRVTISCSASQGISNYLNWYQQKPDGTVKLLIYYTSSLHSGVPSRFSGSGSGTDYSLTISNLEPEDIATYYCQQYSELPYTFGSGTKLEIK = ~0.5 µg/mL
• 20H5.A3 (antibody, V domains shown) VH: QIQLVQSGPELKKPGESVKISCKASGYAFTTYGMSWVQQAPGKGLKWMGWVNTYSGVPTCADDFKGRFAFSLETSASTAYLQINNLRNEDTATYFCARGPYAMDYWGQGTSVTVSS VL: DIQMTQTTSSLSASLGDRVTINCSASQDISNYLNWYQQKPDGTVKLLIYYTSSLLSGVPSRFSGSGSGTDYSLTISNLEPEDIATYFCQQYSKLPYTFGSGTHLEIK = ~0.5 µg/mL
• 2D10.2B2 (antibody, V domains shown) VH: QVQLQQSGPELVKPGASVKISCKASGYTFTDYYINWVKQRPGQGLEWIGWIYPGSNDTKYNEKFKGKATLTVDTSSSTAYMQLGSLTSEDSAVYFCANYFGCSGWFFDVWGTGTTVTVSS VL: DIVMTQAAFSNPVTLGTSASISCRSSKSLLHSDGITYLYWYLQRPGQSPQLLIYRMSNLASGVPDRFSGSGSGTDFTLRISRVEAEDVGVYYCAQMIEFPLTFGAGTILELK = ~0.5 µg/mL
• IMT001 (TB001) (antibody, V domains shown, anti-Gal3 antibody; also called IMT001-4) VH: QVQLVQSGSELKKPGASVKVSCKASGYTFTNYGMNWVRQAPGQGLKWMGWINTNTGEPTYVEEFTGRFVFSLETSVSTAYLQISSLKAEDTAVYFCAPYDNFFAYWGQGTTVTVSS VL: DIVLTQSPLSLPVTPGEPASISCRSSKSLLYKDGKTYLNWFLQKPGQSPQLLIYLMSTHASGVPDRFSGSGSGTDFTLKISRVEAEDVGVYYCQQLVDYPLTFGGGTKLEIK = ~0.8 µg/mL

Cited source for all entries: patent US20230094463A1
